- target_of_assay: T1, human CD47 overexpressed on CHO cells (human, UniProt Q08722 19-292)
- T1 construct: CHO cells transfected with pCHO1.0 carrying human CD47 cDNA (Sino Biological); also called hCD47; CHO-hCD47 cells
- assay_summary: flow cytometry competition on CHO-hCD47 cells against 200 nM mouse Fc-labeled SIRPα
readout_kind: pIC50
Answers are plain numbers, as −log10 of the molar value.

Q: Data request, read-out pIC50, for ADI-29347 (antibody, human IgG1, kappa, V domains shown, Full-length IgG1 kappa expressed in yeast, purified by Protein A) VH: QVQLQESGPGLVKPSETLSLTCTVSGGSIANYYWSWIRQPPGKGLEWIGYTYFSGSTNYNPSLKSRVTISVDTSKNQFSLKLSSVTAADTAVYYCARGKTGSAAWGQGTLVTVSS VL: DIQMTQSPSSVSASVGDRVTITCRASQGISRWLAWYQQKPGKAPKLLIYAASSLQSGVPSRFSGSGSGTDFTLTISSLQPEDFATYYCQQTVSFPITFGGGTKVEIKR
Ans: 8.67

Every entry's value here was drawn from patent US20200377593A1.
